Tested on: NCI-H522
Experiment summary: NCI tumour cell line growth inhibition, 48 h
Calls of active or inactive are those of the source. Rule as the data show it: active = GI50 up to about 1.1 µM and inactive = higher.
Classes used: 1 for active, 0 for inactive

{"columns": ["Molecule", "Group label"],
 "data": [
  ["CCC(C(=O)O)c1ccc(OC)cc1 (centres undefined)", 0],
  ["O=C1OC2C(O)C(=O)OC2C1O (centres undefined)", 0],
  ["CC(C)c1[nH]nc(C(N)=O)c1/N=N/N(C)C", 0],
  ["Clc1ccc(OCc2nnc3n2N=C(c2ccc(Br)cc2)CS3)cc1", 0],
  ["C=C(CC)C[C@@H]1C[C@]2(C(=O)OC)c3[nH]c4ccccc4c3CCN2C1=O", 0],
  ["COc1ccc(N2C(=O)C3c4[nH]c5ccc(Br)cc5c4C4CCC(C(C)(C)C)CC4C3C2=O)cc1 (centres undefined)", 0],
  ["C=CC1(C)CCC2C(=CCC3C(C)(COC4OC(C(=O)O)C(O)C(O)C4O)C(O)CCC23C)C1.C=CC1(C)CCC2C(=CCC3C2(C)CC(O)C(O)C3(C)COC2OC(C(=O)O)C(O)C(O)C2O)C1 (centres undefined)", 0],
  ["CCOC(=O)Cn1nnc2cc(Nc3nc4ccccc4nc3C(=O)OCC)ccc21", 0],
  ["CN(C)CCCN1C(=S)N(CCCN(C)C)c2c3ccccc3nc3c([N+](=O)[O-])ccc1c23", 0],
  ["CN(C)Cc1cc(/N=N/c2ccccc2)cc(CN(C)C)c1O", 0],
  ["Cc1nn(C(=O)Cc2ccccc2)c2c1C(c1ccc(Cl)cc1)SC(=N)N2 (centres undefined)", 0],
  ["C=C1CC(Cn2cc(Br)c(=O)[nH]c2=O)(c2ccc(-c3ccccc3)cc2)OC1=O (centres undefined)", 1],
  ["O=C1CCC2(c3ccc(Cl)cc3)Nc3cc(Cl)ccc3N12 (centres undefined)", 0],
  ["CC(=O)OC1CC[C@@]2(C)C(C1)CC(OC(C)=O)[C@@H]1C2CC(OC(C)=O)[C@]2(C)C(C(C)CC=C(c3ccc(Cl)cc3)c3ccc(Cl)cc3)CCC12 (some centres undefined)", 0]
]}
